// values below are reported TGI
- Test system: SF-268 CNS
- test.summary: NCI tumour cell line growth inhibition, 48 h
readout.type: TGI

- NC(=Nc1ccc(Cl)c(Cl)c1)c1ccccc1N: > 100 µM
- CC(C)C1=CC(=O)C(C)(C2=NC(C)(C)CO2)c2ccccc21 (configuration not stated): > 100 µM
- COc1ccc2cc(CNCCCN3CCN(CCCNCc4ccc5cc(OC)ccc5c4)CC3)ccc2c1: 3.32 µM
- CCC1=NC(N/N=C/c2ccccc2O)=N/C1=C\c1ccccc1O: > 66.9 µM
- Cc1cc(S(=O)(=O)/N=C(\N)n2nc(C)c(C)c2C)c(SCc2ccccc2)cc1Cl: > 100 µM
- O=C(/C=C(\O)C(=O)O)/C=C(\O)c1ccccc1Cl: > 100 µM
- C=CCNC(NCC=C)=C(C(Cl)=C(Cl)Cl)[N+](=O)[O-]: > 100 µM
- CC(C(O)c1ccccc1)N(C)/N=N/c1nc2c([nH]1)c(=O)n(C)c(=O)n2C (configuration not stated): > 100 µM
- O=C(O/N=C1/CCC/C1=C\c1ccccc1)c1ccccc1: > 100 µM
- COc1c(C(CC(C)C)OC(C)=O)ccc2c1C(=O)OCc1cc(C)cc(O)c1O2 (configuration not stated): 27.9 µM
- Nc1c(C(=O)Nc2cccc3ccccc23)sc2nc3c(cc12)CCCCC3: > 50 µM
- CCOC(=O)C(=O)Nc1ccc([N+](=O)[O-])cc1C#N: > 100 µM

---

- Tested on: MALME-3M melanoma
- test.summary: NCI tumour cell line growth inhibition, 48 h
readout.type: TGI

* OC1C=C2C3CN(Cc4cc5c(cc43)OCO5)[C@H]2C[C@@H]1O (stereo partly drawn) | > 100 µM
* CSC1=N/C(=C\c2ccc(Cl)cc2)C(=O)N1CN1CCOCC1 | > 100 µM
* Cc1cc(Nc2nc(N3CCOCC3)nc3ccccc23)n[nH]1 | > 100 µM

---

- System: 786-0 renal
- test.summary: NCI tumour cell line growth inhibition, 48 h
*1 amine or outer side, *2 acyl side, *3 side chain or, on linkers, in order; H or OH if unused. Where a SMILES comes first, the peptide text is derived from it. CO = O=C([*:1])[*:2]
readout.type: TGI

- CC/C(=C/OC)P1(=O)OC(C)(C)CN1C(C)(C)C (stereo not given): > 100 µM
- O=C1C(Br)=C(c2ccccc2)C(c2ccccc2)=C1c1ccccc1: 4.26 µM
- CCC(=O)Nc1ccc2c(c1)CN1C(=O)c3ccccc3C1=N2: > 100 µM
- CC(C)C(NC(=O)C(CCCN=C(N)N)NC(=O)NC(Cc1ccccc1)C(=O)O)C(=O)NC(C=O)CCCN=C(N)N (stereo not drawn) ({Phe-CO}-Arg-Val-Arg-aldehyde; configuration not given here): > 5 µM
- CO[C@@]12C[C@@H](CNC(=O)c3cc(Br)c[nH]3)O[C@@H]1NC(=O)N2: > 100 µM
- CC(=O)Oc1cc2c(=O)oc3c(OC(C)=O)c(OC(C)=O)c(OC(C)=O)c4c(=O)oc(c1OC(C)=O)c2c34: > 100 µM
- Nc1c(C(=O)Nc2cccc3ccccc23)sc2nc3c(cc12)CCCCC3: > 50 µM
- O=C1CC(n2cccc2)c2cc(Br)sc21 (stereo not given): > 100 µM
- O=S(=O)([N-]c1nc2ccccc2nc1-[n+]1ccccc1)c1ccccc1: > 100 µM
- Cc1cc(Nc2ncc(Cl)c(Nc3ccccc3S(=O)(=O)C(C)C)n2)c(OC(C)C)cc1C1CCNCC1: 3.01 µM
- Cc1ncc([N+](=O)[O-])n1CC(O)Cn1cnc([N+](=O)[O-])n1 (stereo not given): > 100 µM
- C[C@@H](Oc1cc(-c2cnn(C3CC4(CCNCC4)C3)c2)cnc1N)c1c(F)ccc(Cl)c1Cl: 3.17 µM
- COC(=O)c1cccc(C)c1C1CN=NC12Cc1c(ccc(C)c1C)C2=O (stereo not given): > 100 µM
- COc1ccc(OC)c2sc(N3C(=O)/C(=C/c4ccccc4S)N=C3c3ccccc3)nc12: > 100 µM
- CC(C)(C)c1cc(N=NC(=S)NCc2ccccc2)cc(C(C)(C)C)c1O: > 100 µM
- C1=Cc2nc1c(-c1ccccc1)c1ccc([n-]1)c(-c1ccccc1)c1nc(c(-c3ccccc3)c3ccc([n-]3)c2-c2ccccc2)C=C1.[Zn+2]: > 100 µM
- Cc1c(N(C(=O)c2cc(-c3cc(Cl)ccc3C(=O)N3Cc4ccccc4C[C@H]3CN3CCOCC3)n(C)c2C)c2ccc(O)cc2)cc(C#N)n1C: 36.8 µM
- C[N+]1(C)C2CCC1CC(OC(=O)C(CO)c1ccccc1)C2 (stereo not given): > 100 µM
- CNC(=O)C(C)NC(=O)C(Cc1ccccc1)NC(=O)OC(C)(C)C (stereo not given): > 100 µM
- O=C1C=CC(=O)N1c1ccc2c(c1)Cc1cc(NC(=O)C(F)(F)F)ccc1-2: 13 µM
- C=C1C(C2(C)C=CC(=O)OC3(C)COC(=O)CC32)C(OC=O)C(OC(=O)C(O)C(C)CC)C2(C)C(c3ccoc3)CC(OC(C)=O)C12O (stereo not given): > 100 µM
- O=C(O)C(Cc1ccccc1)N1C(=O)c2ccccc2C1=O (stereo not given): > 100 µM
- CCSc1nc(=S)[nH]c2[nH]ncc12: > 100 µM
- COc1ccc(-c2cc(=O)c3c(O)c(OC)c(O)cc3o2)cc1O: > 52.7 µM
- C=CCN1C(=O)N/C(=C\c2ccc(Cl)cc2)C1=O: > 100 µM
- O=C(Nc1nc(-c2ccc(Cl)cc2)cs1)c1ccc(O)c(O)c1: 15.3 µM
- c1ccc2c(c1)n1c(N3CCOCC3)[n+]3ccccc3c1c1c3cccc[n+]3c(N3CCOCC3)n21: > 100 µM
- C/C(=N\[N+](C)(C)C)C(c1ccccc1)C1(c2ccccc2)C(c2ccccc2)=C1c1ccccc1 (stereo not given): > 100 µM
- Clc1ccc2c(Cl)ncnc2c1I: > 100 µM
- COc1c(C(CC(C)C)OC(C)=O)ccc2c1C(=O)OCc1cc(C)cc(O)c1O2 (stereo not given): 29.2 µM

---

- Tested on: DMS 273 small cell lung
- test.summary: NCI tumour cell line growth inhibition, 48 h
readout.type: TGI

- CN1CCC23c4ccccc4NC1C21CCN(C)C3Nc2ccccc21: > 375 µM
- O=C1CCC(NC(=O)Cc2ccc(O)cc2)C(=O)N1 (centres undefined): > 2500 µM
- c1cc2[se][se]c3c4cccc5[se][se]c(c(c1)c23)c54: > 100 µM
- Cc1nc2c(s/c(=N\N)n2-c2ccccc2)c(=O)[nH]1: > 100 µM

---

- Tested on: TK-10 renal
- test.summary: NCI tumour cell line growth inhibition, 48 h
*1 amine or outer side, *2 acyl side, *3 side chain or, on linkers, in order; H or OH if unused. Where a SMILES comes first, the peptide text is derived from it. CO = O=C([*:1])[*:2]
readout.type: TGI

• CC(C)C(NC(=O)C(CCCN=C(N)N)NC(=O)NC(Cc1ccccc1)C(=O)O)C(=O)NC(C=O)CCCN=C(N)N (stereo not drawn) ({Phe-CO}-Arg-Val-Arg-aldehyde; configuration not given here) = > 5 µM
• CCOC(=O)C(NC(=O)NCc1ccc(F)cc1)C(F)(F)F (configuration not stated) = > 100 µM
• CCOC(=O)c1c(-c2ccc(Cl)cc2)c(C#N)c(=S)n(C2OC(CO)C(O)C(O)C2O)c1-c1ccccc1 (configuration not stated) = 84 µM
• OC1C=C2C3CN(Cc4cc5c(cc43)OCO5)[C@H]2C[C@@H]1O (some centres not stated) = 39.3 µM
• COc1ccc2c(c1)CC1NC2Cc2ccccc21 (configuration not stated) = > 100 µM
• O=C1OC(c2ccccc2)(c2ccccc2)CC1CN1CCOCC1 (configuration not stated) = 31.6 µM
• O=C(O/N=C1/CCC/C1=C\c1ccccc1)c1ccccc1 = > 100 µM
• CCOC(=O)c1ccc2[nH]c(Cc3[nH]c4ccc(C(=O)OCC)cc4c3C)c(C)c2c1 = 17.4 µM
• O=C(/C=C/c1c(O)c2ccccc2[nH]c1=O)CC(=O)C(=O)Nc1cccc(O)c1 = > 100 µM
• CC1=C/C(=N\N(C)C)C(C(O)(C(F)(F)F)C(F)(F)F)C(C)(C)C1 (configuration not stated) = > 100 µM
• CC(C)CC(NC(=O)OCc1ccccc1)C(=O)NCCCCC(N)C(=O)NC(CCCCNC(=O)C(CC(C)C)NC(=O)OCc1ccccc1)C(=O)NC(CCCCNC(=O)C(CC(C)C)NC(=O)OCc1ccccc1)C(=O)NC(CCCCNC(=O)C(CC(C)C)NC(=O)OCc1ccccc1)C(=O)NC(CCCCNC(=O)C(CC(C)C)NC(=O)OCc1ccccc1)C(=O)NC(CCCCNC(=O)C(CC(C)C)NC(=O)OCc1ccccc1)C(=O)O (configuration not stated) = > 100 µM
• Cc1ccc(-c2nc3nc(-c4ccc(Cl)cc4)nc(N4CCCNCC4)c3o2)cc1 = 3.33 µM
• O=C(/C=C\c1cccc2ccccc12)c1ccc(Br)cc1 = > 100 µM
• CC1(C)C[C@H]2C3=CC[C@@H]4[C@@]5(C)CC[C@H](O)C(C)(C)[C@@H]5CC[C@@]4(C)[C@]3(C)C[C@@H](O)[C@@]23C[C@@H]1OC3=O = > 100 µM
• OC(c1ccc(-c2ccccc2)cc1)(c1ccc(-c2ccccc2)cc1)c1ccc(-c2ccccc2)cc1 = > 100 µM
• C#CCOC(=O)C(N)CS (configuration not stated) = > 100 µM
• c1ccc2c(c1)n1c(N3CCOCC3)[n+]3ccccc3c1c1c3cccc[n+]3c(N3CCOCC3)n21 = > 100 µM
• N#Cc1c(SCc2ccccc2)nc2[nH]c(=S)[nH]c(=S)c2c1-c1ccco1 = 72.1 µM
• CCCCC1(OC(=O)CCC(=O)O)CCC2(CCC(C)C(C/C=C(C)/C=C/C(O)C(C)/C=C/C(=O)O)O2)OC1CC/C(C)=C/C(=O)O (configuration not stated) = 58.5 µM
• O=C(CSc1nnc(-c2ccc(N=Cc3ccc(Cl)cc3)cc2)o1)Nc1ccccc1 = > 100 µM
• O=C(CC1(O)C(=O)Nc2ccccc21)c1ccc(O)cc1O (configuration not stated) = > 100 µM
• CCC[C@H](Nc1nc(-c2ccc(NC(=O)NCC)c(OC)c2)ncc1C)c1cccnc1 = 55.1 µM
• c1cncc(-c2cc(-c3cc(-c4cccnc4)n[nH]3)[nH]n2)c1 = > 100 µM
• COC(=O)C(Cc1ccccc1)C(=O)NC(CNC(=O)OCc1ccccc1)C(=O)OCc1ccccc1 (configuration not stated) = 98 µM
• CC1CC(C)C(=O)C(C(=O)CC2CC(=O)NC2=O)C1 (configuration not stated) = > 100 µM
• O=S(=O)(NCCNc1cc(-c2cn(-c3ccccc3)nc2-c2cccc(O)c2)ccn1)c1ccc(F)cc1 = 9.84 µM
• O=c1[nH]c2nccn2c(Cl)c1Br = > 100 µM

Source: PubChem BioAssay (NCI)
